# Assayed target: T1, Rhesus macaque CD4-HIS (Acro Biosystems, Cat. CD4-C52H7) (rhesus macaque, UniProt P16003 26-390)
# T1 construct: Bought reagent; also called Rhesus CD4; rhesus CD4-HIS; not shown: His tag
# T1 sequence (P16003 26-390 limits assumed): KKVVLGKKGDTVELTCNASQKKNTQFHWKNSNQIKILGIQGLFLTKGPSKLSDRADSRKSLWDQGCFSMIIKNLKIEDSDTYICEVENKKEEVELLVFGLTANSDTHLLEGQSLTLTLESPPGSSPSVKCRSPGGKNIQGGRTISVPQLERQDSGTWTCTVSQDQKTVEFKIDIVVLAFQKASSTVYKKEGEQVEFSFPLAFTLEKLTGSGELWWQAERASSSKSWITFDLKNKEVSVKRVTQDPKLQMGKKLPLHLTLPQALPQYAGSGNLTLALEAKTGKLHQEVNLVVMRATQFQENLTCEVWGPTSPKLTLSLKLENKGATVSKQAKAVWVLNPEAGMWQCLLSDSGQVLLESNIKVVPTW
# Experiment description: BLI Octet, mAb on anti-mouse Fc sensor, rhesus CD4-HIS 25-100 nM, 1:1 global fit;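 also: purified antibodies captured at 10 µg/mL, rhesus CD4 analyte run as a three-concentration serial dilution, irrelevant antibody as reference control, one kinetic constant set per antibody from global fitting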
Assay readout: kon (M⁻¹ s⁻¹)
Numeric only. Scale: M⁻¹ s⁻¹

- 75110_01H18A (antibody, V domains shown, Tested as antibody purified from AlivaMab Mouse hybridoma supernatant (captured by anti-mouse IgG Fc)) VH: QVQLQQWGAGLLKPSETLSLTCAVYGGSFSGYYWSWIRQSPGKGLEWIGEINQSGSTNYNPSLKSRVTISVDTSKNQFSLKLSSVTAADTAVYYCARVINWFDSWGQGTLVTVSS VL: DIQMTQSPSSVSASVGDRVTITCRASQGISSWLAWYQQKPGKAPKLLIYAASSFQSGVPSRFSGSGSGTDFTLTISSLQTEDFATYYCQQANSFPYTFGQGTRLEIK: 130000

-- ask Input 75110_01J17A (antibody, V domains shown, Tested as antibody purified from AlivaMab Mouse hybridoma supernatant (captured by anti-mouse IgG Fc)) VH: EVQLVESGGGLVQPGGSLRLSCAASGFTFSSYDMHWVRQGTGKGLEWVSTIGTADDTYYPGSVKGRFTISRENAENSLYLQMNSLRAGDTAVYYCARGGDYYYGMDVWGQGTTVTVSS VL: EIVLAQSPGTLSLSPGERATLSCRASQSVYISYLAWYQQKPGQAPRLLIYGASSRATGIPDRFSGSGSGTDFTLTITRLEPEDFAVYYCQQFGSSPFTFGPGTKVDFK , output reported kon.
-- reply 79000

-- ask Input 75110_02E08A (antibody, V domains shown, Tested as antibody purified from AlivaMab Mouse hybridoma supernatant (captured by anti-mouse IgG Fc)) VH: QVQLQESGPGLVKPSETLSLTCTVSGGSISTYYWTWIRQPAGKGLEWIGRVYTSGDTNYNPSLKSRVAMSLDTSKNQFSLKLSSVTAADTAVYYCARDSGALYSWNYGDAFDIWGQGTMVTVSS VL: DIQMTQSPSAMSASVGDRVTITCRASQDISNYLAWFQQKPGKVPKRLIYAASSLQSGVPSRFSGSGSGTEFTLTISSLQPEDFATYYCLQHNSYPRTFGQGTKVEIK , output reported kon.
-- reply 79000

-- ask Input 75110_03D16A (antibody, V domains shown, Tested as antibody purified from AlivaMab Mouse hybridoma supernatant (captured by anti-mouse IgG Fc)) VH: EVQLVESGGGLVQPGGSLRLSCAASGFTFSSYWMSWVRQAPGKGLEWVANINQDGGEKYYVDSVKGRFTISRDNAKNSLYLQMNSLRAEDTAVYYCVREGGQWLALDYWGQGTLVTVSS VL: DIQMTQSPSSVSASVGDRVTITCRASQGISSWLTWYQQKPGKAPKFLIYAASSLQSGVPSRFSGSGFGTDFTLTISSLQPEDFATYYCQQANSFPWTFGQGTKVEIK , output reported kon.
-- reply 160000

-- ask Input 75110_01G11A (antibody, V domains shown, Tested as antibody purified from AlivaMab Mouse hybridoma supernatant (captured by anti-mouse IgG Fc)) VH: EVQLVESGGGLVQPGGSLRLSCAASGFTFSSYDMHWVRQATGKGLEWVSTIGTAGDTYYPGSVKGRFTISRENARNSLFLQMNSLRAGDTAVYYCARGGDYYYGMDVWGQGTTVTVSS VL: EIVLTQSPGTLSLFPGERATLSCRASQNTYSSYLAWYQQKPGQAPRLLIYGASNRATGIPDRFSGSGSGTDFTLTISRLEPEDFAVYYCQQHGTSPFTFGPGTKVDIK , output reported kon.
-- reply 28000

-- ask Input 75110_05E13A (antibody, V domains shown, Tested as antibody purified from AlivaMab Mouse hybridoma supernatant (captured by anti-mouse IgG Fc)) VH: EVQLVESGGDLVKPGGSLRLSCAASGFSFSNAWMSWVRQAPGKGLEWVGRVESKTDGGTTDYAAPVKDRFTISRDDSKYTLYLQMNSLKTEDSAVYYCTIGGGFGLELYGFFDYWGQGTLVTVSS VL: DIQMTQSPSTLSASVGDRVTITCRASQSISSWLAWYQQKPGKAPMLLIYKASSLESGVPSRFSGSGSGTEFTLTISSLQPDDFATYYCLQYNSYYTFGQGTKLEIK , output reported kon.
-- reply 1.2e+06
